B1: ATE1 (parent)
chain: DYFPSEDFYRCGYCKNESGSRSNG

variants of: B1; test: protein stability index of a GFP-peptide fusion (GPS, HEK-293T) (PSI 1-6); higher = more stable; details: c terminus: a fixed tail appended;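 further: lentivirally expressed fusions sorted by FACS into six bins by GFP to DsRed ratio, PSI derived from sequencing read proportions per bin multiplied by bin number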
measure_name: protein stability index

INSERT INTO measurements (variant_annotation, measure_name, observed) VALUES
  ('S22L', 'protein stability index', 1.57),
  ('G24M', 'protein stability index', 1.89),
  ('P4M', 'protein stability index', 2.59),
  ('C14D', 'protein stability index', 4.47),
  ('C11L', 'protein stability index', 2.96),
  ('S5V', 'protein stability index', 2.16);
